Field: LC retention time. Provide a value for each of the molecules that follow.
# assay text: Waters ACQUITY UPLC BEH C18, 100 × 2.1 mm, 1.7 µm, 40 °C, 0.28 mL/min, estimated dead time 0.63 min; A: water + 6.5 mM ammonium hydroxide; B: methanol + 6.5 mM ammonium hydroxide; gradient (min/%B) 0/0.5 4/70 4.5/98 5.4/98
# applied conditions: stereoisomer not certain
One number for each entry, in min.

Before answering, review these 2 worked examples.
| molecule | reading unit | LC retention time |
| --- | --- | --- |
| O=C(O)C1CCCCN1 (stereo not drawn) | min | 1.14 |
| NCC(N)C(=O)O (stereo not drawn) | min | 0.768 |

# per-item lookup of LC retention time; items listed below
1. NC(=O)C(N)Cc1c[nH]c2ccccc12 (stereo not drawn)
2. O=C(O)CNC(=O)CCc1ccccc1
3. CC(C)CC(=O)C(=O)O
4. NC(CO)Cc1cnc[nH]1 (stereo not drawn)

result:
1. 3.46
2. 3.32
3. 2.48
4. 1.28

Parameter requested: LC retention time. Apply to each item below.
1. CC12CCC(=O)C=C1CCC1C2C(O)CC2(C)C1CCC2(O)C(=O)CO (stereo not drawn)
2. O=C(NC(O)C(=O)O)c1ccccc1 (stereo not drawn)
3. NC(=O)c1ccccc1O

result:
1. 5.22
2. 2.02
3. 3.12

Batch: LC retention time for all items listed.
1. CNC(=C[N+](=O)[O-])NCCSCc1ccc(CN(C)C)o1
2. Nc1c(O)cccc1C(=O)O
3. CCCCCCSCC(NC(=O)CCC(N)C(=O)O)C(=O)NCC(=O)O (stereo not drawn)

result:
1: 4.28; 2: 0.924; 3: 4.57

Data origin, for the record: the RepoRT retention time repository (doi:10.1038/s41586-021-03707-9)
